Sourced from PubChem BioAssay

Biological target: Nuclear receptor coactivator 1 (Homo sapiens)
Test: SRC1 coactivator transcriptional activity inhibitors, confirmation, cell-based, luminescence, quadruplicate (AID 588820);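 also: 0% = DMSO wells and 100% = gossypol 36 µM treated wells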
Conditions: HEK293 GAL4-SRC1 luciferase reporter, at 3.6 µM, hits give high values
In this section, each of the molecules is paired with its reported inhibition.
Please respond with the number in % and leave the unit unwritten.

Recorded inhibition, per entry:
# molecule, readout-units, measured-number
data = [
    ("Nc1ccc(Oc2ccccc2-c2ccccc2)cc1", "%", 14.7),
    ("CCOC(=O)C(=Cc1ccccc1OC)C(=O)OCC", "%", 9.25),
    ("COc1cccc(C(=O)Nc2nc(-c3ccc(S(=O)(=O)N4CCOCC4)cc3)cs2)c1", "%", -19.1),
    ("Cn1cc(/C=C/c2cc[n+](C)cc2)c2cc(Cl)ccc21", "%", 21.5),
    ("O=c1cc(N2CCN(c3ccccc3Cl)CC2)[nH]c(=O)n1Cc1ccc(F)cc1", "%", -4.06),
    ("CCOc1cc(CNc2ccc3c(c2)OCCO3)cc(Br)c1OCC", "%", -11.6),
    ("Cc1ccc(S(=O)(=O)N(C)c2ccc(C(=O)N3CCN(Cc4ccc5c(c4)OCO5)CC3)cc2)cc1", "%", 9.2),
    ("Cc1ccc2[nH]c3nc(N/N=C/c4cccc(O)c4)nnc3c2c1", "%", 27.8),
]

Problem: Look up inhibition for this molecule: COc1ccc(C(C(=O)NC2CCCCC2)N(C(=O)CCl)c2ccc(C)cc2)cc1 (stereo not given)
Result: 35.7

Problem: Next molecule: Cc1cccc(-n2c(CNC(=O)c3ccccc3)nnc2SCC(=O)Nc2nccs2)c1
Result: -8.14
